Target: human recombinant FAAH (Homo sapiens (Human), UniProt O00519)
Sequence (O00519 whole entry): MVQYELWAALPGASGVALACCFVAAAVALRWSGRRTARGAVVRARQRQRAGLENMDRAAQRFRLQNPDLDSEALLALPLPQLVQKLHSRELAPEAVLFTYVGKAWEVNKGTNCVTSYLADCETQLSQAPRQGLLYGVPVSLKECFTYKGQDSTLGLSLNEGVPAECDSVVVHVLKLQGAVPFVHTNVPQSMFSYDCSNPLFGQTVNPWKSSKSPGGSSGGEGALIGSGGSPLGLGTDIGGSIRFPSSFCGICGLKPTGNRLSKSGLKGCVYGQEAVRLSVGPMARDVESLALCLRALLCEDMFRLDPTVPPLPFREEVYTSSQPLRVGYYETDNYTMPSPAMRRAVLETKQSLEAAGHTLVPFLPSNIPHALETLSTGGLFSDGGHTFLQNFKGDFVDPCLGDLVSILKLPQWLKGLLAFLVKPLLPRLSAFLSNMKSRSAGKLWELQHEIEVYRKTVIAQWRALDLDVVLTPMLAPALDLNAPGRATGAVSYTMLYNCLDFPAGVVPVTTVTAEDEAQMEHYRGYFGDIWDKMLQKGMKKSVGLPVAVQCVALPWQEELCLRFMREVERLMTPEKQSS
Test: In vitro inhibition of FAAH activity (fluorescent inhibitor screening kit, AMC arachidonoyl amide)
Type: biochemical
Conditions: human recombinant FAAH; read-out: Inhibition on FAAH activity (IC50)

{"Molecule": "O=C(NC1CCCC1)Oc1ccc(O)c(-c2cncc(-c3nnn[nH]3)c2)c1 [Example 247]", "IC50": "> 1 µM"}
{"Molecule": "CSc1ccc(OC(=O)NCc2ccccc2)cc1-c1cncc(-c2nnco2)c1 [Example 188]", "IC50": "> 1 µM"}
{"Molecule": "CC1CCCCN1C(=O)Oc1cccc(-c2cncc(-c3nnco3)c2)c1 (stereo not shown) [Example 143]", "IC50": "~10 µM"}
{"Molecule": "O=C(NC1CCCC1)Oc1cccc(-c2cc(-c3nnco3)ccn2)c1 [Example 259]", "IC50": "0.1 to 1 µM"}
{"Molecule": "COc1ccc(OC(=O)NCc2ccccc2)cc1-c1cncc(-c2nnn[nH]2)c1 [Example 252]", "IC50": "> 1 µM"}
{"Molecule": "CCCCCCCNC(=O)Oc1cccc(-c2cncc(C#N)c2)c1 [Example 26]", "IC50": "0.01 to 0.1 µM"}
{"Molecule": "O=C(NCC1CCCCC1)Oc1cccc(-c2cncc(-c3ncno3)c2)c1 [Example 204]", "IC50": "0.01 to 0.1 µM"}
